Tested on: MS2 coat protein
Assay: apparent KD of MS2 coat protein; designed switch direction (-1 OFF switch, 1 ON switch): -1; higher = weaker reporter binding
Conditions: input ligand: FMN 200 uM
Would you please tag the item class 1 when its apparent KD of MS2 coat protein is 400 nM or above, and class 0 when it is below?

# input # bool: apparent KD of MS2 coat protein of CCUCAGUGAGGAUAUGGUAGACACAAUCGGGAUUGAGAAGGCCAGAAGGUACAUGAGGAUCACCCAUGUAAUCA [Eternabot (L2) Solution 58] (Eterna round: R97, puzzle: Exclusion 4) >= 400 nM
# output class 0

# input Check the entry AUAAAGUGAGGAUAUCCAAUAUAUGACAUGAGGAUCACCCAUGUUUCCACUCGUACCUCCGGAGAAGGCACAAUUU [Ex5 #63] (Eterna round: R97, puzzle: Exclusion 5) : does apparent KD of MS2 coat protein equal or exceed 400 nM?
# output class 0

# input Threshold query (apparent KD of MS2 coat protein >= 400 nM) on UUUUUAUAUGAAGGAUAUACUUAACAUGAGGAUCACCCAUGUGGUGUUGUGAGUGAGUGAGUUUAGUAGAAGGUCAAGUAUUUU [JMF's solution 8] (Eterna round: R96, puzzle: Exclusion NG 2)
# output class 1

# input Reported apparent KD of MS2 coat protein reaches at least 400 nM for ACGUAGGUAGUUAGGAUAUUUAGUAUAUUUACAGUGAAGAAGGAACAUGAGGAUCACCCAUGUAGUGGUGUCCA [Eternabot (L1) Solution 68] (Eterna round: R97, puzzle: Brourd's mod of Exclusion 4) ?
# output class 1

# input Identify whether the reported apparent KD of MS2 coat protein of the following sequence is 400 nM or greater: GGUUGGCGAGGAUAUACAUGAGGAUCACCCAUGUGGUCCUGUGGAAAAAAAAACCUUUGUAGAAGGCGCGGGUC [salish99_ex3_r4_032] (Eterna round: R97, puzzle: Exclusion 3)
# output class 1

====

Give measured apparent KD of MS2 coat protein for each item. Keep answers brief.
Tested on: MS2 coat protein
Assay: apparent KD of MS2 coat protein; designed switch direction (-1 OFF switch, 1 ON switch): 1; higher = weaker reporter binding
Conditions: input ligand: none
Note: unit nM is implicit; provide only the numeric part.

# input Field: apparent KD of MS2 coat protein (MS2 coat protein). Entry: UUGCUCAUGUAAGGAUAUGCAGCCGUUUCGGCUGCAGAAGGUACUAUAAUACAUGAGGAUCACCCAUGUCUCUAUUAUUUAGUG [salish99_SSNG1_r04_924] (Eterna round: R96, puzzle: Same State NG 1)
# output 59.8

# input Please state recorded apparent KD of MS2 coat protein (tested on MS2 coat protein) of AAACAUGAGCGAGGAUAUACAUGAGGAUCACCCGUAGAAGGCGCAUGUAAAACAACAUGAGGAUCACCCAUGUCAUGUACAUGA [Same State NG1 S1] (Eterna round: R96, puzzle: Same State NG 1)
# output 66.9

# input Hi! What's the reported apparent KD of MS2 coat protein for CAUCUCCCUUUUACAUGAGGAUCACCCAUGUUUUUAUAUUGAGAGGAUAUCGUAUUUAGAAACAUCGAGAAGGCUCAUUUGUAU [JR_SSNG3_Sub072] (Eterna round: R96, puzzle: Same State NG 3) on MS2 coat protein?
# output 153

====

Tested on: MS2 coat protein
Assay: apparent KD of MS2 coat protein; designed switch direction (-1 OFF switch, 1 ON switch): -1; higher = weaker reporter binding
Conditions: input ligand: none
readout: apparent KD of MS2 coat protein
Answer with the number, then the unit.

# input Consider the sequence shown here: UUUAGUUCAGGAUAUGUAGAAUUAAACAUGAGGAUCACCCAUGUAGUUCCUGAUCCUGCUACAGAAGGGAACAUUU [Mat - Exclusion 5 - Eli Mod - D13] (Eterna round: R97, puzzle: Exclusion 5) What is its recorded apparent KD of MS2 coat protein?
# output 17.2 nM

# input Fill in: apparent KD of MS2 coat protein of AACGUGCAGCUUUGCUGUACGCGUACAUGAGGAUCACCCAUGUAGGAUAUGGUACGCAAAGCGUGCUAGAAGGAUAUGGAGAAA [Mat - Exclusion NG 3 - Mod of JL - D82] (Eterna round: R96, puzzle: Exclusion NG 3) is ___
# output 16.2 nM

# input Given AAUUAAUAUCAGGAUAUGACUUUCGAUAUUUAGUCAGAAGGGAUGACAUGAGGAUCACCCAUGUGAUCAAUUAA [JR_Ex6_Sub027] (Eterna round: R97, puzzle: Exclusion 6) , state its recorded apparent KD of MS2 coat protein.
# output 37.7 nM

# input What measured apparent KD of MS2 coat protein goes with UCUUUGUUUGUGAGGAUAUCGGUGGAAUGGAUUGUCGAGAAGGCACAUGAGGAUCACCCAUGUGUGGGACAGCA [JR_BMEx4_Sub026] (Eterna round: R97, puzzle: Brourd's mod of Exclusion 4) ?
# output 22.3 nM

# input Which apparent KD of MS2 coat protein value belongs to GGAUAAAAGUGAGGAUAUGAGGAGAGAGAGAGAUCAGAAGGCACACAUGAGGAUCACCCAUGUGAGUUCUCGAUAAGAAACACG [Prohibition 55 - Jieux - Exclusion NG 1] (Eterna round: R96, puzzle: Exclusion NG 1) ?
# output 15.9 nM

# input Fill in: apparent KD of MS2 coat protein of CAAAGAUAAGGAUAUUGAAGGUUCGACAUGAGGAUCACCCAUGUUAUGUUGGAAAAGGGACAAGAAGGUAUGAAAU [salish99_ex5_r4_213] (Eterna round: R97, puzzle: Exclusion 5) is ___
# output 40.3 nM

# input What does the data say about its apparent KD of MS2 coat protein? Entry: GUUAACGUAGGAUAUUAGUACAUACACAUGAGGAUCACCCAUGUUUAGUGGGUCUAAGAAUAAGAAGGGCGAAGAA [EX5 #25] (Eterna round: R97, puzzle: Exclusion 5)
# output 130 nM

# input Please look up its apparent KD of MS2 coat protein: AGCUAGAUAGGAUAUGCCCGGGAUAACAUGAGGAUCACCCAUGUGACCGAUUCAUGUCCUGCAGAAGGGUUUGGGA [Mod of ViennaUCT 7 - Jieux - Exclusion 5] (Eterna round: R97, puzzle: Exclusion 5)
# output 12.7 nM

# input Data request, read-out apparent KD of MS2 coat protein, for UGAGCUUACGCAGGAUAUGAGGAUCACCCAUAGAAGGAUAUCGAAAGAGAAGGUCUGAGGAUUACCCAGAAGGGCGUGGGCUCU [pwkr exNG2 2xF5 2xFMN.11] (Eterna round: R96, puzzle: Exclusion NG 2)
# output 131 nM

# input Which apparent KD of MS2 coat protein is listed for UUUAGUUCAGGAUAUGAUGAAAUUAACAUGAGGAUCACCCAUGUAGAUCCUGAAUUAACAUCAGAAGGGAACAUUU [JL-ex5-4.44 Brourd mod] (Eterna round: R97, puzzle: Exclusion 5) ?
# output 10.8 nM

# input // apparent KD of MS2 coat protein lookup, key: ACUUAUUGAGGAUAUACAUUGAUUAACAUGAGGAUCACCCAUGUACAAACAUGUAUUUAUGUAGAAGGCAGAAGAA [JR_Ex5_Sub067] (Eterna round: R97, puzzle: Exclusion 5)
# output 13.4 nM

# input Reported apparent KD of MS2 coat protein for GCACGAAGUGUAGGAUAUCUGUGCGAUUAGCUCAGAGAAGGACACAUGAGGAUCACCCAUGUGUUCCAAUACUCAAAUACGUGC [Eli exng1 - 0622] (Eterna round: R96, puzzle: Exclusion NG 1) : what is it?
# output 12.2 nM

# input Given the sequence GAGAAAUGUGUUAGGAUAUCCCGCUAAAGCAGAUAGGAGAAGGAACAUGAGGAUCACCCAUGUAGGGAGGGCCA [Eternabot (Original) Solution 17] (Eterna round: R97, puzzle: Brourd's mod of Exclusion 4) , what is its reported apparent KD of MS2 coat protein?
# output 67 nM

# input Requested field: apparent KD of MS2 coat protein. Item: AAGACACAUGAGGAUCACCCAUGUGAGGAUAUUUGAUGCGUACCUACAGGACUGCGAUAAAGAAGGCAUAAGGG [Eternabot (L2) Solution 80] (Eterna round: R97, puzzle: Exclusion 1)
# output 17.7 nM

# input I am curious: what apparent KD of MS2 coat protein value has been reported for AAUCGAUCGCCGUACGCACACAUGAGGAUCACCCAUGUAGCUGAGGAUAUCCACCCAUAACGGUCGGAGAAGGCGGGACUGGGA [Eraananbi] (Eterna round: R96, puzzle: Exclusion NG 3) ?
# output 19.1 nM

# input Quick one: apparent KD of MS2 coat protein of CCCUAGGGAGGAUAUCCAAUAUAUGACAUGAGGAUCACCCAUGUUUCCACUCGUACCUCCGGAGAAGGCCCAUACC [Ex5 #10] (Eterna round: R97, puzzle: Exclusion 5) ?
# output 28.4 nM

# input Field request: apparent KD of MS2 coat protein | item: UAUUCUAGAUAGGAUAUACUUUUUUUUUUUUUCGUAGAAGGAUCUACAUGAGGAUCACCCAUGUUUUCAGCAGU [JR_E6_Sub012] (Eterna round: R96, puzzle: Exclusion 6)
# output 71.1 nM

# input Name the reported apparent KD of MS2 coat protein value associated with the sequence ACUCAGUGAGGAUAUCGCCAGAGAGCCACAACGGCCUCUGAUGAGAAGGCACAUGAGGAUCACCCAUGUAAGCA [EX4 C.2] (Eterna round: R97, puzzle: Exclusion 4)
# output 252 nM
